# GI50 annotations
- Tested on: UACC-257
- procedure-summary: NCI tumour cell line growth inhibition, 48 h
The source made the active and inactive calls. No stated cut-off is given here; in the data, active = GI50 up to about 1.1 µM and inactive = higher.
readout-type: GI50

compound	readout-type	result
CCOC(=O)C1C(=O)CC(C)(O)C(C(=O)OCC)C1c1ccc(N(C)C)cc1 (stereo unspecified)	GI50	> 100 µM (inactive)
CC1(C)C(=O)N(O)C(C)(C)N1N=O	GI50	> 10 µM (inactive)
CCOC(=O)CCC(NC(=O)c1ccc(N2CCN(c3c(C)nc(N)nc3N)CC2)cc1)C(=O)OCC (stereo unspecified)	GI50	15.6 µM (inactive)
C/C=C(/C)C(=O)O[C@H]1[C@H]2[C@@H]([C@@H](OC(C)=O)[C@H](C)C(=O)[C@@]34C[C@@H](C)C(=O)[C@]3(/C=C(\C)[C@H]1OC(C)=O)O4)C2(C)C	GI50	4.09 µM (inactive)
O=C1c2ccccc2C(=O)c2sc(Nc3ccccc3C(F)(F)F)nc21	GI50	15.6 µM (inactive)
COc1ccc(C2NC(=S)Nc3c2c(=O)oc2c3ccc3ccccc32)cc1 (stereo unspecified)	GI50	> 100 µM (inactive)
CN(CCO)c1nc2c(c(=O)[nH]1)CNCC2	GI50	> 100 µM (inactive)
Nc1ncnc2c1ncn2C1C=CC(COS(N)(=O)=O)C1 (stereo unspecified)	GI50	63.5 µM (inactive)
COC(=O)c1ccccc1CC(Cc1ccccc1)C(=O)OC (stereo unspecified)	GI50	72.1 µM (inactive)
O=C1C2Nc3ccccc3SC2C(=O)N1c1cccc([N+](=O)[O-])c1 (stereo unspecified)	GI50	> 100 µM (inactive)
CC(C)(C)[Si](C)(C)OCC1OC(n2cc(I)c(=O)[nH]c2=O)C(O[Si](C)(C)C(C)(C)C)C1O[Si](C)(C)C(C)(C)C (stereo unspecified)	GI50	10.5 µM (inactive)

====

- System: NCI/ADR-RES
- procedure-summary: NCI tumour cell line growth inhibition, 48 h
Activity calls are given as the source filed them. Cut-off read from the data, not from the text of the source: active = GI50 up to about 1.1 µM and inactive = higher.
Possible outcomes: true (active), false (inactive)

> print(dat)
                                    molecule    cat
 1        O=C(O)c1cccc2c1/C(=N/Nc1ccccc1)CC2  false
 2  CC(C)CCCCCCCCCCCCC(=O)NCC(=O)NC1C(C)OC(Nc2[nH]cnc3ncnc2-3)C(O)C1O (centres undefined)   true
 3  Cc1cc2c(cc1C)NC1=C(O)C(c3c[nH]c4ccc(COc5ccccc5)cc34)OC1=N2 (centres undefined)  false
 4  COC(=O)N/N=C(\C)C(CN1CCOCC1)C(c1ccccc1)c1cc2ccccc2oc1=O (centres undefined)  false
 5  CCOC(=O)N1c2ccccc2N(C(=O)OCC)C1CC(=O)/C=C/c1ccccc1  false
 6  Cc1ccc(C(C2C(=O)N(C)C(=O)N(C)C2=O)C(F)(F)C(=O)N(C)C)cc1 (centres undefined)  false
 7  COc1cc(-c2cc(=O)c3c(OC)c(OC)c(OC)c(OC)c3o2)c(OC)c(OC)c1OC  false
 8    C=CCO/N=C/c1cc(/N=C(/S)c2ccoc2C)ccc1Cl  false
 9  O=C(Sc1n[nH]c(=O)[nH]c1=O)c1cccc2nc3ccccc3nc12  false
10                   Nc1nc2ccc3ccccc3c2[nH]1  false
11  COc1cc([N+](=O)[O-])cc2c1NC(=O)C2(C)SC (centres undefined)  false
12  CCCCCCCC/C=C\CCCCCCC(F)C(=O)O (centres undefined)  false
13  CC1CCC(C(C)C)C(OC(=O)NCn2cc(-c3ccccc3)nn2)C1 (centres undefined)  false
14               CC1(C)C(=O)N(O)C(C)(C)N1N=O  false
15  O=C1N/N=C\Nc2ccc(cc2)S(=O)(=O)c2ccc(cc2)/N=C\NNC1=O  false
16              Cc1n[nH]c(=O)n1/N=C/c1cccnc1  false
17  O=C1c2ccccc2-c2nc(-c3cccs3)cc3c2c1nc1ccccc13  false
18             OCCOCn1nncc1Cn1ncc2c(O)ncnc21  false
19  O=C(CSC1=NC(=O)C2(NN1)c1ccccc1-c1ccccc12)NC(=S)Nc1ccccc1  false
20      COC1=C(N=[N+]=[N-])C(=O)c2ncccc2C1=O  false
21        CSc1ccc2c(c1)N(CCCN(C)C)c1ccccc1S2  false
22  CC(C)CC1C(=O)NCCC(NC(=O)C(N)Cc2ccc(O)cc2)C(=O)NC(Cc2ccccc2)C(=O)NC(Cc2ccccc2)NC1=O (centres undefined)  false
23  CC(=O)Nc1ccc2c(c1)[nH]c(=O)c1cc(Cl)ccc12  false
24           CCc1n[nH]c(=O)n1/N=C/c1ccccc1Cl  false
25  CC(Br)C(=O)NN1C2=C(Nc3ccccc31)c1cccc3cccc2c13 (centres undefined)  false
26  CCN1CC2(COC)C(O)CC(OC)C34C5CC6(O)C(OC)C=C(C5C6OC(=O)c5ccc(OC)c(OC)c5)C(C(OC)C23)C14 (centres undefined)  false
27  O=C1NC(=O)C(C(CC(=O)c2ccc([N+](=O)[O-])cc2)c2ccccc2)C(=O)N1 (centres undefined)  false
28  O=S(=O)(O)c1cc(/N=N/c2cc(S(=O)(=O)O)c3ccccc3c2O)ccc1/C=C/c1ccc(/N=N/c2cc(S(=O)(=O)O)c3ccccc3c2O)cc1S(=O)(=O)O  false
29  CC(C)(C)/C(=N\Nc1nc2ccccc2[nH]1)c1ccccn1  false
30           CCCCC(=O)Oc1ccc2c(C)cc(=O)oc2c1  false
31  COC(=O)c1cccc(COc2ccc([N+](=O)[O-])cc2Cl)c1  false
32  CC1(C)CCCC2(C)C3=C(CCC12)C(=O)OC3 (centres undefined)  false
33  CC[C@@]1(C)CCC2c3ccc(O)cc3CC[C@H]2C1C (some centres undefined)  false
34  O=C(Nc1nc(C23CC4CC(CC(C4)C2)C3)cs1)c1c(O)c2ccccc2[nH]c1=O  false
